// reported CLint scaled for each item listed
method: Intrinsic clearance in mouse liver microsomes by LC-MS/MS analysis
Type: ADME, microsome
reported.conditions: read-out: CLH
metric: CLint scaled (mL/min/kg)

- compound: "CN1CCN(Cc2ccc(NC(=O)c3n[nH]cc3Nc3ncnc4[nH]ccc34)cc2)CC1"
  assay.result: 139
- compound: "O=C(Nc1ccc(CN2CCOCC2)cc1)c1n[nH]cc1Nc1ncnc2sccc12"
  assay.result: 765

* * *

target.entity: Receptor-type tyrosine-protein kinase FLT3 (Homo sapiens)
Sequence (P36888 whole entry): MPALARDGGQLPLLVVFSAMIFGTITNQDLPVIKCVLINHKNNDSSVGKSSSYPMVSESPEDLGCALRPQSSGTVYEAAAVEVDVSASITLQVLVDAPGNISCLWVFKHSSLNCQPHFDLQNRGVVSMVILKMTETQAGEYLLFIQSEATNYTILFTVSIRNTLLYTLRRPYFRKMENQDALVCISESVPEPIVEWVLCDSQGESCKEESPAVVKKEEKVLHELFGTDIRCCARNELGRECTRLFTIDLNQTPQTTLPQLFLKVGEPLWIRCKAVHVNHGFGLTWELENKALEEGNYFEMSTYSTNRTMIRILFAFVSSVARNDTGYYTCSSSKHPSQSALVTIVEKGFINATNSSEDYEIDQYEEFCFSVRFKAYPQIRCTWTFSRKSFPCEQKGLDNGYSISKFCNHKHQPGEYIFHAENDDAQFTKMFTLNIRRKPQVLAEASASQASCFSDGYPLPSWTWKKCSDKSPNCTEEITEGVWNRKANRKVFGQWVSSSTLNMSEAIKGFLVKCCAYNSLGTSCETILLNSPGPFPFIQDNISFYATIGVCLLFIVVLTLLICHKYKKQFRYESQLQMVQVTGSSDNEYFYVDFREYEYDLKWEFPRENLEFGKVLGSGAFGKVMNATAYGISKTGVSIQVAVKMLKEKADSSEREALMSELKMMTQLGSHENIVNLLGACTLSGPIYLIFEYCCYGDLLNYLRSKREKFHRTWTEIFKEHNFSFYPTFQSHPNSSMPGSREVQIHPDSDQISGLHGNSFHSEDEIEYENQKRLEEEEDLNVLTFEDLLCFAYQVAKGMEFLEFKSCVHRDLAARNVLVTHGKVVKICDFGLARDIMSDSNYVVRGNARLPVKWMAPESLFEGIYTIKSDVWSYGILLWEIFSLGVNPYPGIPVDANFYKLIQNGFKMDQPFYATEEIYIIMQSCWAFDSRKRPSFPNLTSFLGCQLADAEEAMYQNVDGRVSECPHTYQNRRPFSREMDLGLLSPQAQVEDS
pIC50: −log10 of the molar value.
# if value of pIC50 reaches 8, tag condition met; if it stays below, tag condition not met

- compound: "O=C(Nc1ccc(CN2CCOCC2)cc1)c1n[nH]cc1Nc1nccc2ccccc12"
  assigned.category: "condition not met"
- compound: "CN1CCN(Cc2ccc(NC(=O)c3n[nH]cc3Nc3ncnc4ccccc34)cc2)CC1"
  assigned.category: "condition met"
- compound: "O=C(Nc1ccc(CN2CCOCC2)cc1)c1n[nH]cc1Nc1nc(Cl)nc2ccccc12"
  assigned.category: "condition met"

* * *

# CLint scaled per record follows
method: Intrinsic clearance in cynomolgus monkey liver microsomes by LC-MS/MS analysis
Assay type: ADME, Macaca fascicularis, microsome
reported.conditions: read-out: CLH
metric: CLint scaled (L/h/kg)

- compound: "CN1CCN(Cc2ccc(NC(=O)c3n[nH]cc3Nc3ncnc4[nH]ccc34)cc2)CC1"
  metric: "CLint scaled"
  assay.result: 2.19
- compound: "O=C(Nc1ccc(CN2CCOCC2)cc1)c1n[nH]cc1Nc1ncnc2sccc12"
  metric: "CLint scaled"
  assay.result: 10.3

* * *

method: Terminal half life in rat liver microsomes by LC-MS/MS analysis
Type: ADME, microsome
reported.conditions: read-out: beta t1/2 (converted)
metric: half-life (min)

- compound: "CN1CCN(Cc2ccc(NC(=O)c3n[nH]cc3Nc3ncnc4[nH]ccc34)cc2)CC1"
  unit.abbreviation: "min"
  assay.result: 61.9
- compound: "O=C(Nc1ccc(CN2CCOCC2)cc1)c1n[nH]cc1Nc1ncnc2sccc12"
  unit.abbreviation: "min"
  assay.result: 7.08

* * *

Test system: MV4-11
method: Growth inhibition of human MV4-11 cells at 1 uM after 72 hrs by CellTiter-Glo assay relative to control
Type: functional
reported.conditions: MV4-11, 72 h, read-out: GI
Lab note: anything with inhibition of growth at 1 µM at or over 60% counts as Yes; the rest go in No.

- compound: "CN1CCN(Cc2ccc(NC(=O)c3n[nH]cc3Nc3ccnc4ccccc34)cc2)CC1"
  assigned.category: "Yes"
- compound: "O=C(Nc1ccc(CN2CCOCC2)cc1)c1n[nH]cc1Nc1ccnc2ccccc12"
  assigned.category: "No"
- compound: "COc1ccc2c(Nc3c[nH]nc3C(=O)Nc3ccc(CN4CCOCC4)cc3)ccnc2c1"
  assigned.category: "No"
- compound: "COc1ccc2c(Nc3c[nH]nc3C(=O)Nc3ccc(CN4CCN(C)CC4)cc3)ccnc2c1"
  assigned.category: "No"
- compound: "O=C(Nc1ccc(CN2CCOCC2)cc1)c1n[nH]cc1Nc1ccnc2ccc(Br)cc12"
  assigned.category: "Yes"
- compound: "O=C(Nc1ccc(CN2CCOCC2)cc1)c1n[nH]cc1Nc1nc(Cl)nc2ccccc12"
  assigned.category: "Yes"
- compound: "CN1CCN(Cc2ccc(NC(=O)c3n[nH]cc3Nc3ccnc4ccc(Br)cc34)cc2)CC1"
  assigned.category: "Yes"
- compound: "COc1ccc2nccc(Nc3c[nH]nc3C(=O)Nc3ccc(CN4CCN(C)CC4)cc3)c2c1"
  assigned.category: "Yes"
- compound: "CN1CCN(Cc2ccc(NC(=O)c3n[nH]cc3Nc3ncnc4occc34)cc2)CC1"
  assigned.category: "Yes"

* * *

Listed next: entries and their corresponding inhibition of growth at 1 µM.
Test system: MV4-11
method: Growth inhibition of human MV4-11 cells at 1 uM after 72 hrs by CellTiter-Glo assay relative to control
Format: functional
reported.conditions: MV4-11, 72 h, read-out: GI

- compound: "O=C(Nc1ccc(CN2CCOCC2)cc1)c1n[nH]cc1Nc1cc(C(F)(F)F)nc2ccccc12"
  target.entity: "MV4-11"
  unit.abbreviation: "%"
  inhibition of growth at 1 µM: 4.7
- compound: "O=C(Nc1ccc(CN2CCOCC2)cc1)c1n[nH]cc1Nc1ncnc2sccc12"
  target.entity: "MV4-11"
  unit.abbreviation: "%"
  inhibition of growth at 1 µM: 98.5
- compound: "O=C(Nc1ccc(CN2CCOCC2)cc1)c1n[nH]cc1Nc1nccc2ccccc12"
  target.entity: "MV4-11"
  unit.abbreviation: "%"
  inhibition of growth at 1 µM: 50.4
- compound: "COc1ccc2ncnc(Nc3c[nH]nc3C(=O)Nc3ccc(CN4CCOCC4)cc3)c2c1"
  target.entity: "MV4-11"
  unit.abbreviation: "%"
  inhibition of growth at 1 µM: 53.1

* * *

target.entity: Receptor-type tyrosine-protein kinase FLT3 (Homo sapiens, UniProt P36888)
Sequence (P36888 whole entry): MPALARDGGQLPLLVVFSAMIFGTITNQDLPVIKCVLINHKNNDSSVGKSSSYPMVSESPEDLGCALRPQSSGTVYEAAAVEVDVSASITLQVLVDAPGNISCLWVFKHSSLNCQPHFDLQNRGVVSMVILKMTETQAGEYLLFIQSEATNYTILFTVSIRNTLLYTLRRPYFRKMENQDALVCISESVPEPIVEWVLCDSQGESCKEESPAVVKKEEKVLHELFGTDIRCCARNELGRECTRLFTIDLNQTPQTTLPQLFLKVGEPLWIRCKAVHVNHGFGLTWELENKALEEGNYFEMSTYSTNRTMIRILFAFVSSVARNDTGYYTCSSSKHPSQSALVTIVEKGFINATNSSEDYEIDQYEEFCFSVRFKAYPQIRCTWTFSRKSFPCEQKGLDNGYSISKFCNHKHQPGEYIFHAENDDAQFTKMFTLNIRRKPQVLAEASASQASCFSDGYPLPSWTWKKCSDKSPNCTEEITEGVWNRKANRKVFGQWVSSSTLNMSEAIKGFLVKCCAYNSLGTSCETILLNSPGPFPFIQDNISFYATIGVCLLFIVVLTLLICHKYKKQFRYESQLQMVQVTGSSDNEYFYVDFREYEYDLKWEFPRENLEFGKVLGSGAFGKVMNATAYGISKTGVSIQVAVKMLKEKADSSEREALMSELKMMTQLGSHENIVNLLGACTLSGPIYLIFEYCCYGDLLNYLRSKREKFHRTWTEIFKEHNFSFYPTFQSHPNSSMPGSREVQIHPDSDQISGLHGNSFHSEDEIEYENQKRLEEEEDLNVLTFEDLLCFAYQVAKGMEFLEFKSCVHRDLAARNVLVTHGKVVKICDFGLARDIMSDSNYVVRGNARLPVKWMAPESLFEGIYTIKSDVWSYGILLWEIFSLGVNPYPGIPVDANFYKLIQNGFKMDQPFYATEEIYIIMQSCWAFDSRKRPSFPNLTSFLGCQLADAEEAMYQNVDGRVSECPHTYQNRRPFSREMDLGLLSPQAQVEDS
pIC50: −log10 of the molar value.
pIC50 values by entry

- compound: "Cc1sc2ncnc(Nc3c[nH]nc3C(=O)Nc3ccc(CN4CCN(C)CC4)cc3)c2c1C"
  target.entity: "Receptor-type tyrosine-protein kinase FLT3 (Homo sapiens, UniProt P36888)"
  pIC50: 9.24
- compound: "Cc1csc2ncnc(Nc3c[nH]nc3C(=O)Nc3ccc(CN4CCOCC4)cc3)c12"
  target.entity: "Receptor-type tyrosine-protein kinase FLT3 (Homo sapiens, UniProt P36888)"
  pIC50: 8.86
- compound: "CCN(CC)Cc1ccc(NC(=O)c2n[nH]cc2Nc2ncnc3[nH]ccc23)cc1"
  target.entity: "Receptor-type tyrosine-protein kinase FLT3 (Homo sapiens, UniProt P36888)"
  pIC50: 9.89
- compound: "O=C(Nc1ccc(CNC2CC2)cc1)c1n[nH]cc1Nc1ncnc2sccc12"
  target.entity: "Receptor-type tyrosine-protein kinase FLT3 (Homo sapiens, UniProt P36888)"
  pIC50: 8.98
